- target entity: PDE4 h4D7 (Homo sapiens, UniProt Q08499)
- Sequence (Q08499 1-748 isoform Q08499-11): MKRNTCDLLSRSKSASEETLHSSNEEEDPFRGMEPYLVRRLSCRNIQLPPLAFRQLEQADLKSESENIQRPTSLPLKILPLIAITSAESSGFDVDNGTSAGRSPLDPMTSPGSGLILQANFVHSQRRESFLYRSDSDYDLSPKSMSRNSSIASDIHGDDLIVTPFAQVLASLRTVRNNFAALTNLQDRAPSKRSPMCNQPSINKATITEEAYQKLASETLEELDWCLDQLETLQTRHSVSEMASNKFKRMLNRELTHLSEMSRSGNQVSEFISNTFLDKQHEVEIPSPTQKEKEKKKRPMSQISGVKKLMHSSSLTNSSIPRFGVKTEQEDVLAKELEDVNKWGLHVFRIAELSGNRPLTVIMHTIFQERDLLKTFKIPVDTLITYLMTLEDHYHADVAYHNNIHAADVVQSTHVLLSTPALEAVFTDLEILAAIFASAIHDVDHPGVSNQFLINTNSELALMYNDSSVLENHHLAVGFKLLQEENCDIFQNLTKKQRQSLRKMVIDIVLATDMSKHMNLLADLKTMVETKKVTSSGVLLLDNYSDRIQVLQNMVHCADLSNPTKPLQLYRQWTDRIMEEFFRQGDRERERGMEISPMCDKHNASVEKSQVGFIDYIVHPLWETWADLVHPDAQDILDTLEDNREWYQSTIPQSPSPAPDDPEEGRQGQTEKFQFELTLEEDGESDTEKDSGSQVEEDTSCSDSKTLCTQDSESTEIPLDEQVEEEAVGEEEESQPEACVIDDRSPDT
- protocol summary: In-vitro real-time enzyme-coupled spectrophotometric assay for PDE4 enzymes (h4D7)
- assay setup: PDE4 isoform h4D7; enzyme-coupled NADH assay, absorbance at 340 nm
- Description: In-vitro assay for PDE4 enzymes. The in-vitro activity of PDE4 enzymes and the in-vitro potency of therapeutic agents described in the present invention was measured using a real-time, enzyme-coupled spectrophotometric assay. By using three different coupling enzymes, the product of the PDE4 reaction is coupled to the oxidation of the reduced form β-nicotinamide adenine dinucleotide (NADH), which dissipation can be monitored spectrophotmetrically at […]. Assay description. […]
Recorded IC50 for the following compounds

In the examples that follow, each entry is paired with its recorded IC50.
COc1ccc(Cc2ccc(O)cc2)cc1Oc1cccc(Cl)c1 [Example P-08]    1 to 10 µM
COc1ccc(Cc2ccc(F)cc2)c(F)c1Oc1cccc([N+](=O)[O-])c1 [Example P-01]    < 1 µM
COc1ccc(Cc2ccc(NC(N)=O)cc2)c(F)c1Oc1ccccn1 [Example P-12]    < 1 µM
COc1ccc(Cc2ccc(F)cc2)c(F)c1Oc1cccc(N)c1 [Example P-02]    > 21 µM

Exam item: Let me know recorded IC50 for COc1ccc(Cc2ccc(NC(C)=O)cc2)c(F)c1Oc1ccc(F)cc1 [Example P-10] , thanks.
Marked response: 11 to 20 µM

---

- target entity: PDE4 h4D7 (Homo sapiens, UniProt Q08499)
- protocol summary: In-vitro real-time enzyme-coupled spectrophotometric assay for PDE4 enzymes (h4D7)
- assay setup: PDE4 isoform h4D7; enzyme-coupled NADH assay, absorbance at 340 nm
pIC50: −log10 of the molar value.
attribute measured: pIC50

COc1ccc(Cc2ccc(F)cc2)c(F)c1Oc1cccc(Cl)c1    > 6.00
COc1ccc(Cc2ccc(NS(C)(=O)=O)cc2)cc1Oc1ccccc1    < 4.68

Exam item: Output measured pIC50 for this item: COc1ccc(Cc2ccc(NC(N)=O)cc2)c(F)c1Oc1ccc(F)cc1
Marked response: > 6.00

---

Listing of entries alongside the reported pIC50.
- target entity: PDE4 h4B1 (Homo sapiens, UniProt Q07343)
- Sequence (Q07343 whole entry): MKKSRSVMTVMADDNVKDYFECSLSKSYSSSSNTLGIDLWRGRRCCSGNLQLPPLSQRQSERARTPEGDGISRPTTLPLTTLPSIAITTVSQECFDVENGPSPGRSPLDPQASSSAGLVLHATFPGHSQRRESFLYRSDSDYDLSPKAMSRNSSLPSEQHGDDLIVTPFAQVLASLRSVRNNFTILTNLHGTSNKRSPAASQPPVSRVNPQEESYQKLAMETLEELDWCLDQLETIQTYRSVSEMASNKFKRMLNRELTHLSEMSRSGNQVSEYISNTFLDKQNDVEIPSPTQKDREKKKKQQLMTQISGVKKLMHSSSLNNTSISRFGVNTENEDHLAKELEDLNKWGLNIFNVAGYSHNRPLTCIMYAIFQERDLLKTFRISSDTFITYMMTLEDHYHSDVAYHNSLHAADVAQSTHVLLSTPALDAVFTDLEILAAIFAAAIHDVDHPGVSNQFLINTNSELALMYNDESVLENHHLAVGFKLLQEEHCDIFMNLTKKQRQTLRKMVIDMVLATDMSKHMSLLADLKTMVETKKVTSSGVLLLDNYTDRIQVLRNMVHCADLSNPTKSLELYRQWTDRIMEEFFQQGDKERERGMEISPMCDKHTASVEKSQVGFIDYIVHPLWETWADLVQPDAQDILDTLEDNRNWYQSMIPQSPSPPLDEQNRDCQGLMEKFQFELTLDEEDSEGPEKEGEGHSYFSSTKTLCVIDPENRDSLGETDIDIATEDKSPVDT
- protocol summary: In-vitro real-time enzyme-coupled spectrophotometric assay for PDE4 enzymes (h4B1)
- assay setup: PDE4 isoform h4B1; enzyme-coupled NADH assay, absorbance at 340 nm
- Procedure: In-vitro assay for PDE4 enzymes. The in-vitro activity of PDE4 enzymes and the in-vitro potency of therapeutic agents described in the present invention was measured using a real-time, enzyme-coupled spectrophotometric assay. By using three different coupling enzymes, the product of the PDE4 reaction is coupled to the oxidation of the reduced form β-nicotinamide adenine dinucleotide (NADH), which dissipation can be monitored spectrophotmetrically at […]. Assay description. […]
pIC50: −log10 of the molar value.

Examples with their reported pIC50 follow.
COc1ccc(Cc2ccc(NC(N)=O)cc2)c(F)c1Oc1ccc(F)cc1    5.00 to 6.00
COc1ccc(Cc2ccc(NC(C)=O)cc2)c(F)c1Oc1ccc(F)cc1    < 4.68

Exam item: Give me measured pIC50, please, for this compound: COc1ccc(Cc2ccc(NS(C)(=O)=O)cc2)cc1Oc1ccccc1
Marked response: < 4.68

---

- target entity: PDE4 h4D7 (Homo sapiens)
- protocol summary: In-vitro real-time enzyme-coupled spectrophotometric assay for PDE4 enzymes (h4D7)
- assay setup: PDE4 isoform h4D7; enzyme-coupled NADH assay, absorbance at 340 nm
pIC50: −log10 of the molar value.
Here, each record is paired with measured pIC50 data.

Some compounds with recorded pIC50:
COc1ccc(Cc2ccc(NS(C)(=O)=O)nc2)cc1Oc1cccc(Cl)c1    5.00 to 6.00
COc1ccc(Cc2ccc(NC(N)=O)nc2)cc1Oc1cccc(Cl)c1    5.00 to 6.00
COc1ccc(Cc2ccc(N)cc2)cc1Oc1cccc(Cl)c1    5.00 to 6.00

Exam item: Look up and report pIC50, with PDE4 h4D7 (Homo sapiens) as system, for COc1ccc(Cc2ccc(N)nc2)cc1Oc1cccc(Cl)c1
Marked response: 5.00 to 6.00

Recorded values, source patent US8877816B2.
